- System: MARIMO;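 further: after 48 h exposure read by CellTiter-Glo luminescence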
- Method: cell viability relative to vehicle control; higher = less cytotoxic
- Conditions Used: 10 µM; SRSF2 genotype: SRSF2 wt/wt
Measured cell viability of individual entries

Compound	Units Of Measure	cell viability
COc1ccc(C=O)cc1O [Isovanillin]	%	108
C[C@@H]1O[C@@H](O[C@H]2C[C@@H](O)[C@]3(CO)[C@H]4[C@H](O)C[C@]5(C)[C@@H](C6=CC(=O)OC6)CC[C@]5(O)[C@@H]4CC[C@]3(O)C2)[C@H](O)[C@H](O)[C@H]1O [Ouabain]	%	4.01
CCC(=O)O[C@H]1CC[C@H]2[C@@H]3CC[C@H]4CC(=O)[C@H](C)C[C@]4(C)[C@H]3CC[C@]12C [Drostanolone Propionate]	%	44.8
